The values you see were collected from patent US9931327B2.

Parameter: pIC50. Scope: all listed entries.
tested on: LPS-induced TNF-α release in peripheral blood mononuclear cells (PBMCs); test: In vitro determination of PDE4 inhibitory activity in the PBMCs assay (LPS-induced TNF-α release); format: cell-based, human; settings: PBMC; human PBMCs, LPS 3 ng/ml, 18 hours, TNF-α by ELISA; read-out: PDE4 inhibition (IC50, 50% inhibition of LPS-induced TNF-α release)
pIC50: −log10 of the molar value.

COMPOUND	pIC50
Cc1ccc(S(=O)(=O)N2CCSC2C(=O)O[C@@H](Cc2c(Cl)c[n+]([O-])cc2Cl)c2ccc(OC(F)F)c(OCC3CC3)c2)c(C)c1 (stereo partly shown)	9.00 to 10.00
COc1ccc(S(=O)(=O)N2CCSC2C(=O)O[C@@H](Cc2c(Cl)c[n+]([O-])cc2Cl)c2ccc(OC(F)F)c(OCC3CC3)c2)cc1C(=O)N(C)C (stereo partly shown)	> 10.00
COc1cccc(S(=O)(=O)N2CCS[C@H]2C(=O)O[C@@H](Cc2c(Cl)c[n+]([O-])cc2Cl)c2ccc(OC(F)F)c(OCC3CC3)c2)c1	9.00 to 10.00
COc1ccc(C(=O)N2CCSC2C(=O)O[C@@H](Cc2c(Cl)c[n+]([O-])cc2Cl)c2ccc(OC(F)F)c(OCC3CC3)c2)cc1S(=O)(=O)N(C)C (stereo partly shown)	9.00 to 10.00
COc1ccc(S(=O)(=O)N2CCS[C@H]2C(=O)O[C@@H](Cc2c(Cl)c[n+]([O-])cc2Cl)c2ccc(OC(F)F)c(OCC3CC3)c2)cc1C(=O)N(C)C	> 10.00
COc1ccc(S(=O)(=O)N2CCCC[C@H]2C(=O)O[C@@H](Cc2c(Cl)c[n+]([O-])cc2Cl)c2ccc(OC(F)F)c(OCC3CC3)c2)cc1C(=O)N(C)C	> 10.00
CN(C)C(=O)c1cccc(S(=O)(=O)N2CCSC2C(=O)O[C@@H](Cc2c(Cl)c[n+]([O-])cc2Cl)c2ccc(OC(F)F)c(OCC3CC3)c2)c1 (stereo partly shown)	> 10.00
Nc1ccc(S(=O)(=O)N2CCC[C@H]2C(=O)O[C@@H](Cc2c(Cl)c[n+]([O-])cc2Cl)c2ccc(OC(F)F)c(OCC3CC3)c2)cc1	9.00 to 10.00
O=C(O[C@@H](Cc1c(Cl)c[n+]([O-])cc1Cl)c1ccc(OC(F)F)c(OCC2CC2)c1)[C@@H]1SCCN1S(=O)(=O)CCN1CCOCC1	> 10.00
O=C(O[C@@H](Cc1c(Cl)c[n+]([O-])cc1Cl)c1ccc(OC(F)F)c(OCC2CC2)c1)C1SCCN1S(=O)(=O)c1cccnc1 (stereo partly shown)	> 10.00
O=C(O)c1cccc(S(=O)(=O)N2CCSC2C(=O)O[C@@H](Cc2c(Cl)c[n+]([O-])cc2Cl)c2ccc(OC(F)F)c(OCC3CC3)c2)c1 (single isomer, unassigned)	9.00 to 10.00
Cn1ccnc1S(=O)(=O)N1CCC[C@H]1C(=O)O[C@@H](Cc1c(Cl)c[n+]([O-])cc1Cl)c1ccc(OC(F)F)c(OCC2CC2)c1	> 10.00
CN1CCN(C(=O)c2cccc(S(=O)(=O)N3CCSC3C(=O)O[C@@H](Cc3c(Cl)c[n+]([O-])cc3Cl)c3ccc(OC(F)F)c(OCC4CC4)c3)c2)CC1 (stereo partly shown)	> 10.00
O=C(O[C@@H](Cc1c(Cl)c[n+]([O-])cc1Cl)c1ccc(OC(F)F)c(OCC2CC2)c1)C1SCCN1S(=O)(=O)c1ccc(N2CCOCC2)nc1 (stereo partly shown)	> 10.00
O=C(O[C@@H](Cc1c(Cl)c[n+]([O-])cc1Cl)c1ccc(OC(F)F)c(OCC2CC2)c1)C1SCCN1S(=O)(=O)CC1CC1 (stereo partly shown)	9.00 to 10.00
Nc1ccc(S(=O)(=O)N2CCOC(C(=O)O[C@@H](Cc3c(Cl)c[n+]([O-])cc3Cl)c3ccc(OC(F)F)c(OCC4CC4)c3)C2)cc1 (stereo partly shown)	> 10.00
N#Cc1cccc(S(=O)(=O)N2CCS[C@H]2C(=O)O[C@@H](Cc2c(Cl)c[n+]([O-])cc2Cl)c2ccc(OC(F)F)c(OCC3CC3)c2)c1	9.00 to 10.00
Nc1ccc(S(=O)(=O)N2CCS[C@H]2C(=O)O[C@@H](Cc2c(Cl)c[n+]([O-])cc2Cl)c2ccc(OC(F)F)c(OCC3CC3)c2)cc1	> 10.00
CN(C)C(=O)c1cccc(S(=O)(=O)N2CCS[C@H]2C(=O)O[C@@H](Cc2c(Cl)c[n+]([O-])cc2Cl)c2ccc(OC(F)F)c(O)c2)c1	8.00 to 9.00
CN(C)C(=O)c1cccc(S(=O)(=O)N2CCCC[C@@H]2C(=O)O[C@@H](Cc2c(Cl)c[n+]([O-])cc2Cl)c2ccc(OC(F)F)c(OCC3CC3)c2)c1	> 10.00
O=C(O[C@@H](Cc1c(Cl)c[n+]([O-])cc1Cl)c1ccc(OC(F)F)c(OCC2CC2)c1)[C@@H]1SCCN1S(=O)(=O)c1ccc2c(c1)OCCO2	9.00 to 10.00
COC(=O)c1cc(CN2CCCC2C(=O)O[C@@H](Cc2c(Cl)c[n+]([O-])cc2Cl)c2ccc(OC(F)F)c(OCC3CC3)c2)oc1C (stereo partly shown)	8.00 to 9.00
